biological target: T1, recombinant extracellular domain of CD47 (UniProt Q08722 19-139, limits assumed); assay: SPR; antibody captured on anti-human Fc, CD47-ECD flowed 0-100 nM; 1:1 Langmuir
T1 construct: extracellular domain; Analyte flowed over the captured antibodies in SPR; also called CD47-ECD
T1 sequence (Q08722 19-139 limits assumed): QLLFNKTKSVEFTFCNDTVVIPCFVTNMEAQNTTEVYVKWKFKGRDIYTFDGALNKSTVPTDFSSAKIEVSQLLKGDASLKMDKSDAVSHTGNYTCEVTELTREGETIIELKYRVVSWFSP
pKd: −log10 of the molar value.
// f strictly below 9 in pKd; t otherwise

Problem: Say whether Ab356/Ab1127 (antibody, V domains shown, FR and CDR L2 variant; Label printed HC first; r460 used; also called HC Ab356 / LC Ab1127) VH: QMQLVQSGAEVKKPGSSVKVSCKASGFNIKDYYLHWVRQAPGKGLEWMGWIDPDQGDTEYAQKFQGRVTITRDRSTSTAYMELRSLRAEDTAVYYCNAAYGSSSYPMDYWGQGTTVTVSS VL: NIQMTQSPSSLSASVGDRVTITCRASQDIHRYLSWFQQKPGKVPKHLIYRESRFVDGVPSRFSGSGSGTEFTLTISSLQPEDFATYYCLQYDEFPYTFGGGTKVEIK shows pKd of 9 or more.
Result: f

Problem: Say whether AbParental (parental anti-CD47 antibody) (antibody, human IgG4 S228P, kappa, V domains shown, also called Parental LC-HC; parental antibody) VH: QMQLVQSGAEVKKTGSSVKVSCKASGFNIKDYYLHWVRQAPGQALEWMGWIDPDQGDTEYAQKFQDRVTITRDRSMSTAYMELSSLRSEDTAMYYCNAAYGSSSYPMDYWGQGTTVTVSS VL: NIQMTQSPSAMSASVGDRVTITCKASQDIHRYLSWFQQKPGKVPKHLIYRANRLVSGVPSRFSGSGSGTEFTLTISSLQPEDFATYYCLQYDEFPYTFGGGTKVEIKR shows pKd of 9 or more.
Result: t

Problem: Say whether Ab480/Ab1127 (antibody, V domains shown, FR and CDR L2 variant; Label printed HC first; r460 used; also called HC Ab480 / LC Ab1127) VH: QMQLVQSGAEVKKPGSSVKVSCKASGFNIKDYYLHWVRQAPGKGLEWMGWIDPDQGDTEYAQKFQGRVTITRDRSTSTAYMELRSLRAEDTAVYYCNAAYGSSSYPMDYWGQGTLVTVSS VL: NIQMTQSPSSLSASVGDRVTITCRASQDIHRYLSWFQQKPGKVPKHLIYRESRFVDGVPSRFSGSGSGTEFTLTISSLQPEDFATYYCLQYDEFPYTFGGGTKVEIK shows pKd of 9 or more.
Result: f

Problem: Say whether Ab356/Ab1122 (antibody, V domains shown, FR and CDR L2 variant; Label printed HC first; r445 used; also called HC Ab356 / LC Ab1122) VH: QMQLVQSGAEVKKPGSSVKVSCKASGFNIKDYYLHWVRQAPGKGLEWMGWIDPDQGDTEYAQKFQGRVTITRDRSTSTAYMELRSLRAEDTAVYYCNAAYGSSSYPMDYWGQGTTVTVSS VL: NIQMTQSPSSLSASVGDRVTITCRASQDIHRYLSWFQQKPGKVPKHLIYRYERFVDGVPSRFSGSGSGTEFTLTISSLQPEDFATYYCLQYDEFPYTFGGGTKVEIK shows pKd of 9 or more.
Result: f
